This collection of values is drawn from patent US9550792B2.

measured.target: UniProt:P45984
Sequence (P45984 26-321 limits assumed): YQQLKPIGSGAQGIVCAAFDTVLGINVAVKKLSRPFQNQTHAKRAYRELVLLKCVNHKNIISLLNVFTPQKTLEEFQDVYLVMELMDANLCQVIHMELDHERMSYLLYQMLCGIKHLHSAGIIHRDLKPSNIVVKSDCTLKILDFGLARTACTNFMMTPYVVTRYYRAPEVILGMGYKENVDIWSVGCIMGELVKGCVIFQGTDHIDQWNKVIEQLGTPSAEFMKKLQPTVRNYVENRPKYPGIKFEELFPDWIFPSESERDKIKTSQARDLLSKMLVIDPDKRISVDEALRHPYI
method.notes: Kinase IC50, 33P labeled isotope method
Assay type: biochemical
assay.conditions: 20 μM ATP; read-out: IC50* JNK2
pIC50: −log10 of the molar value.
property.measured: pIC50

[
  {
    "structure.smiles.string": "Cc1cc2c(Nc3c[nH]nc3C(=O)Nc3ccc(CN4CCN(C)CC4)cc3)ncnc2[nH]1",
    "cmp": "=",
    "reported": 5.78
  },
  {
    "structure.smiles.string": "CN1CCN(Cc2ccc(NC(=O)c3n[nH]cc3Nc3ncnc4occc34)cc2)CC1",
    "cmp": "=",
    "reported": 5.83
  },
  {
    "structure.smiles.string": "CN1CCN(Cc2ccc(NC(=O)c3n[nH]cc3Nc3ncnc4sccc34)cc2)CC1",
    "cmp": "≤",
    "reported": 6.00
  },
  {
    "structure.smiles.string": "Cc1cc2c(Nc3c[nH]nc3C(=O)Nc3ccc(CN4CCN(C)CC4)cc3)nccc2s1",
    "cmp": "=",
    "reported": 5.86
  },
  {
    "structure.smiles.string": "Cc1cc2c(Nc3c[nH]nc3C(=O)Nc3ccc(CN4CCN(C)CC4)cc3)ncnc2s1",
    "cmp": "=",
    "reported": 5.93
  }
]

###

measured.target: CDK9/cyclin K (Homo sapiens, UniProt P50750)
Sequence (P50750 19-315 limits assumed): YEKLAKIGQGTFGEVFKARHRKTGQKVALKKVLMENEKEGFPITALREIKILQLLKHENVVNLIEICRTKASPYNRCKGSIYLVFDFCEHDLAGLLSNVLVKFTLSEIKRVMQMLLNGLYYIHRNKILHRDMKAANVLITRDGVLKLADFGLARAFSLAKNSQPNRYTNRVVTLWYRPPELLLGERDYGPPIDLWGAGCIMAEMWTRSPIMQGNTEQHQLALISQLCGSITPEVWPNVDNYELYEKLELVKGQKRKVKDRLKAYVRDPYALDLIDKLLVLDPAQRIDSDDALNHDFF
Sequence (O75909 whole entry partner): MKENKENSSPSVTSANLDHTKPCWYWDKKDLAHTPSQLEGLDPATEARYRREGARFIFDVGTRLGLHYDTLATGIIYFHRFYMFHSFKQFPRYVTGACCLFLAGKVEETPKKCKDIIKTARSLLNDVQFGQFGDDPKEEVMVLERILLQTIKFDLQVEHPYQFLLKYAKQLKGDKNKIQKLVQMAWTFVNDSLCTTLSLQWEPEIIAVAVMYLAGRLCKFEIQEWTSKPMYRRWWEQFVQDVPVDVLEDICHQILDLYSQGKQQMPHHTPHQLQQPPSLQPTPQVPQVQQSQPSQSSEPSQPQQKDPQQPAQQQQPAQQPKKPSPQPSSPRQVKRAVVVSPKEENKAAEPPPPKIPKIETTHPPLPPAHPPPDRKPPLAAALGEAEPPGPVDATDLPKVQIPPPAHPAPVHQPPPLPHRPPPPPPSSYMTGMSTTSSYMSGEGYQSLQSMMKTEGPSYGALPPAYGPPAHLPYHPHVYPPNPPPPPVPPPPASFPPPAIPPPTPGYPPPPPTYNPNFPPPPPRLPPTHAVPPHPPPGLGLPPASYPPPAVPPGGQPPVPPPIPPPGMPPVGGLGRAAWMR
method.notes: Kinase IC50, 33P labeled isotope method
assay.conditions: 20 μM ATP
pIC50: −log10 of the molar value.
The entries below are paired with their reported pIC50.

[
  {
    "structure.smiles.string": "CN1CCN(Cc2ccc(NC(=O)c3n[nH]cc3Nc3ncnc4occc34)cc2)CC1",
    "pIC50": 7.35
  },
  {
    "structure.smiles.string": "Cc1cc2c(Nc3c[nH]nc3C(=O)Nc3ccc(CN4CCN(C)CC4)cc3)ncnc2[nH]1",
    "pIC50": 7.37
  },
  {
    "structure.smiles.string": "Cc1cc2c(Nc3c[nH]nc3C(=O)Nc3ccc(CN4CCN(C)CC4)cc3)ncnc2s1",
    "pIC50": 7.43
  },
  {
    "structure.smiles.string": "Cc1cc2c(Nc3c[nH]nc3C(=O)Nc3ccc(CN4CCN(C)CC4)cc3)nccc2s1",
    "pIC50": 7.37
  },
  {
    "structure.smiles.string": "CN1CCN(Cc2ccc(NC(=O)c3n[nH]cc3Nc3ncnc4sccc34)cc2)CC1",
    "pIC50": 7.41
  }
]

###

method.notes: Pharmacokinetics after single oral dose in rats
Type: in vivo, Wistar rat
assay.conditions: male, Wistar, rat, plasma, po, 30 mg/kg, mean of rats, oral 30 mg/kg, time 24 h
property.measured: concentration at 24 h (ng/mL)

[
  {
    "compound": "CN1CCN(Cc2ccc(NC(=O)c3n[nH]cc3Nc3ncnc4sccc34)cc2)CC1 [Compound I-1]",
    "property.measured": "concentration at 24 h",
    "reported": 123
  },
  {
    "compound": "O=C(Nc1ccc(CN2CCOCC2)cc1)c1n[nH]cc1Nc1ncnc2sccc12 [Compound I-2]",
    "property.measured": "concentration at 24 h",
    "reported": 157
  }
]

###

measured.target: Aurora A (Homo sapiens, UniProt O14965)
Construct: purchased
Sequence (O14965 1-403): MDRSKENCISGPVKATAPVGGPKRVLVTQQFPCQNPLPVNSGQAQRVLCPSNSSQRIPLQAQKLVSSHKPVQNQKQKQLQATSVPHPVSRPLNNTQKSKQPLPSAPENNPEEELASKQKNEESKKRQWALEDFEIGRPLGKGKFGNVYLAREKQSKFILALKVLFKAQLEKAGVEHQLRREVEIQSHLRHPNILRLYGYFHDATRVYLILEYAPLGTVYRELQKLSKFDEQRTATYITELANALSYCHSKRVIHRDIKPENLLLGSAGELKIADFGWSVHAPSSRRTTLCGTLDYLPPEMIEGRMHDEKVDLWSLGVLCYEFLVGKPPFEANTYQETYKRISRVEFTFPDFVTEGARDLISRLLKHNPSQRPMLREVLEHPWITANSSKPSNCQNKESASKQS
method.notes: Inhibitory activity to Aurora A (FRET)
Format: biochemical
assay.conditions: 1 × 10^−6 mol/L
Hi, to clarify the labels: fulfilled covers Aurora A inhibition % (1 × 10^−6 mol/L) from 60% upward, not fulfilled covers anything below 60%.

[
  {
    "structure.smiles.string": "Cc1cc2ncnc(Nc3c[nH]nc3C(=O)Nc3ccc(CN4CCN(C)CC4)cc3)c2[nH]1",
    "label.class": "fulfilled"
  },
  {
    "structure.smiles.string": "Cc1c[nH]c2ncnc(Nc3c[nH]nc3C(=O)Nc3ccc(CN4CCOCC4)cc3)c12",
    "label.class": "not fulfilled"
  },
  {
    "structure.smiles.string": "O=C(Nc1ccc(CN2CCOCC2)cc1)c1n[nH]cc1Nc1ncnc2cc[nH]c12",
    "label.class": "not fulfilled"
  },
  {
    "structure.smiles.string": "Cc1cc2c(Nc3c[nH]nc3C(=O)Nc3ccc(CN4CCOCC4)cc3)nccc2o1",
    "label.class": "not fulfilled"
  },
  {
    "structure.smiles.string": "CN1CCN(Cc2ccc(NC(=O)c3n[nH]cc3Nc3nccc4occc34)cc2)CC1",
    "label.class": "not fulfilled"
  },
  {
    "structure.smiles.string": "Cc1cc2c(Nc3c[nH]nc3C(=O)Nc3ccc(CN4CCOCC4)cc3)ncnc2s1",
    "label.class": "fulfilled"
  },
  {
    "structure.smiles.string": "Cc1cc2c(Nc3c[nH]nc3C(=O)Nc3ccc(CN4CCOCC4)cc3)ncnc2[nH]1",
    "label.class": "fulfilled"
  },
  {
    "structure.smiles.string": "Cc1csc2ncnc(Nc3c[nH]nc3C(=O)Nc3ccc(CN4CCOCC4)cc3)c12",
    "label.class": "not fulfilled"
  },
  {
    "structure.smiles.string": "Cc1sc2ncnc(Nc3c[nH]nc3C(=O)Nc3ccc(CN4CCOCC4)cc3)c2c1C",
    "label.class": "not fulfilled"
  },
  {
    "structure.smiles.string": "Cc1c[nH]c2ncnc(Nc3c[nH]nc3C(=O)Nc3ccc(CN4CCN(C)CC4)cc3)c12",
    "label.class": "not fulfilled"
  },
  {
    "structure.smiles.string": "Cc1cc2ccnc(Nc3c[nH]nc3C(=O)Nc3ccc(CN4CCN(C)CC4)cc3)c2[nH]1",
    "label.class": "fulfilled"
  },
  {
    "structure.smiles.string": "Cc1csc2c(Nc3c[nH]nc3C(=O)Nc3ccc(CN4CCOCC4)cc3)nccc12",
    "label.class": "fulfilled"
  },
  {
    "structure.smiles.string": "Cc1cc2c(Nc3c[nH]nc3C(=O)Nc3ccc(CN4CCN(C)CC4)cc3)nccc2o1",
    "label.class": "not fulfilled"
  },
  {
    "structure.smiles.string": "Cc1cc2c(Nc3c[nH]nc3C(=O)Nc3ccc(CN4CCOCC4)cc3)nccc2s1",
    "label.class": "fulfilled"
  },
  {
    "structure.smiles.string": "CN1CCN(Cc2ccc(NC(=O)c3n[nH]cc3Nc3nccc4cc[nH]c34)cc2)CC1",
    "label.class": "not fulfilled"
  },
  {
    "structure.smiles.string": "CN1CCN(Cc2ccc(NC(=O)c3n[nH]cc3Nc3ncnc4cc[nH]c34)cc2)CC1",
    "label.class": "fulfilled"
  },
  {
    "structure.smiles.string": "Cc1sc2ncnc(Nc3c[nH]nc3C(=O)Nc3ccc(CN4CCN(C)CC4)cc3)c2c1C",
    "label.class": "not fulfilled"
  },
  {
    "structure.smiles.string": "O=C(Nc1ccc(CN2CCOCC2)cc1)c1n[nH]cc1Nc1ncnc2[nH]ccc12",
    "label.class": "not fulfilled"
  },
  {
    "structure.smiles.string": "Cc1csc2c(Nc3c[nH]nc3C(=O)Nc3ccc(CN4CCN(C)CC4)cc3)nccc12",
    "label.class": "fulfilled"
  }
]
